System: RXF 393 renal
assay_text: NCI tumour cell line growth inhibition, 48 h; in the data active = GI50 below about 0.43 µM; inactive = the rest
Possible outcomes: Yes = active, No = inactive

1) COc1ccc(C2SC(C)C(=O)N2NC(=O)C(O)c2ccccc2)cc1OC (configuration not stated) | No
2) CC[C@H](CO)Nc1nc(NCc2ccccc2)n2ncc(C(C)C)c2n1 | Yes
3) O=c1nc2oc3ccc4ccccc4c3cc-2s1 | No
4) C1CN(SSN2CCOCC2)CCO1 | No
5) CC(C)(O)CC(=O)NCCn1ccc2ncnc(Nc3ccc(Oc4cccc(C(F)(F)F)c4)c(Cl)c3)c21 | No
6) Cn1cc(C2=C(c3cccc(OCC(O)CO)c3)C(=O)NC2=O)c2ccccc21 (configuration not stated) | No
7) CCOc1ccccc1N=Nc1c(C)[nH]n(-c2nc(-c3ccccc3)cs2)c1=O | No
8) COc1cccc(-n2ncc3c(N/N=C/c4ccncc4)ncnc32)c1 | No
9) CC1(C)[C@@H](OC(N)=O)[C@H]2O[C@H]2[C@]2(CO)[C@H]3CC[C@]4(C)[C@@H](c5ccc(=O)oc5)[C@@H](Cl)C[C@]4(O)C3=CC[C@@H]12 | Yes
10) Cc1c2c(nn1C)CSCc1cc(n(C)n1)CSc1cc(c3ccccc3c1)OCCCc1c(C(=O)O)n(C)c3c-2c(Cl)ccc13 | No
11) Clc1nc(Cl)c2ncn(C/C=C/COc3cccc(OC/C=C/Cn4cnc5c(Cl)nc(Cl)nc54)c3)c2n1 | No
12) CN(C)c1ccc2c(c1)OC(N)=C(C#N)C2c1ccc2c(c1)CCO2 (configuration not stated) | Yes
